- TARGET: Tyrosine-protein kinase JAK2 (Homo sapiens)
- ASSAY_DETAILS: primary HTS for Janus kinase 2 inhibitors, biochemical, Homo sapiens, LANCE Ultra TR-FRET detection, NCGC Pharmaceutical Collection (AID 1117354)
- STUDY_CONDITIONS: LANCE Ultra TR-FRET kinase assay, at 20 µM (top of the series)
Listed next: entries and their corresponding inhibition.
Express it in %; write the number only.

MOLECULE | TARGET | VALUE_UNIT | inhibition
CC(C)C[C@H](NC(=O)[C@H](CCc1ccccc1)NC(=O)CN1CCOCC1)C(=O)N[C@@H](Cc1ccccc1)C(=O)N[C@@H](CC(C)C)C(=O)[C@@]1(C)CO1 | Tyrosine-protein kinase JAK2 (Homo sapiens) | % | 5.34
CCN(CC)CCNc1ccc(CO)c2sc3ccccc3c(=O)c12 | Tyrosine-protein kinase JAK2 (Homo sapiens) | % | 33.1

query: Which inhibition reading was recorded for the molecule `Oc1c(I)cc(I)c2cccnc12` ?
result: -10.5

query: Which inhibition is reported for this molecule? `COc1c(C)c2c(c(O)c1C/C=C(\C)CCC(=O)OCCN1CCOCC1)C(=O)OC2`
result: 8.22

query: What value of measured inhibition is listed for `COC(=O)Nc1nc2ccc(Sc3ccccc3)cc2[nH]1` ?
result: -7.45

query: What value of inhibition has been recorded for this entry: `CCCSc1ccc2nc(NC(=O)OC)[nH]c2c1`
result: -0.03

query: Bench note: what inhibition did `COc1ccc2cc1Oc1ccc(cc1)C[C@H]1c3c(cc4c(c3Oc3cc5c(cc3OC)CCN(C)[C@@H]5C2)OCO4)CCN1C` show?
result: 17.9

###

- TARGET: Tyrosine-protein kinase JAK2 (Homo sapiens)
- ASSAY_DETAILS: primary HTS for Janus kinase 2 inhibitors, biochemical, Homo sapiens, LANCE Ultra TR-FRET detection, NCGC Pharmaceutical Collection (AID 1117354)
- STUDY_CONDITIONS: LANCE Ultra TR-FRET kinase assay, at 20 µM (top of the series)
REPORTED_PROPERTY: inhibition (%)
The answer is to be given in %; state only the numeric part.

COMPOUND | TARGET | inhibition (%)
CSc1ccc2c(c1)C(N1CCN(C)CC1)Cc1ccccc1S2 (stereo not given) | Tyrosine-protein kinase JAK2 (Homo sapiens) | -4.22
Cc1ccc([N+](=O)[O-])[c]2c1[O][Hg]2 | Tyrosine-protein kinase JAK2 (Homo sapiens) | 36.9
CCCOc1ccc2nc(NC(=O)OC)[nH]c2c1 | Tyrosine-protein kinase JAK2 (Homo sapiens) | -4.4
COC(=O)Nc1nc2ccc(C(=O)c3ccccc3)cc2[nH]1 | Tyrosine-protein kinase JAK2 (Homo sapiens) | 25.8

query: Please report the recorded inhibition for `CC[C@@H]([C@H](C)O)n1ncn(-c2ccc(N3CCN(c4ccc(OC[C@@H]5CO[C@@](Cn6cncn6)(c6ccc(F)cc6F)C5)cc4)CC3)cc2)c1=O` .
result: 10.5

query: So what's the measured inhibition for this one? `Nc1ccc2cc3ccc(N)cc3nc2c1`
result: -6.54

query: # input compound: `O=C(Nc1ccc([N+](=O)[O-])cc1Cl)c1cc(Cl)ccc1O` ; wanted: its inhibition
result: 16.5

query: Consider the compound `CN(C)c1ccc2nc3ccc(=[N+](C)C)cc-3sc2c1` and give its measured inhibition.
result: 13.3

query: Look at this compound and give its reported inhibition. `COc1cccc2c1C(=O)c1c(O)c3c(c(O)c1C2=O)C[C@@](O)(C(C)=O)C[C@@H]3O[C@H]1C[C@H](N)[C@H](O)[C@H](C)O1`
result: 7.94

query: Given `O=C(NOCC1CC1)c1ccc(F)c(F)c1Nc1ccc(I)cc1Cl` , state its recorded inhibition.
result: 13.2

Where do the numbers come from? From PubChem BioAssay AID1117354.
